All values here come from ChEMBL document CHEMBL1136626.

tested on: A549; assay: In vitro concentration required to inhibit the TNF-alpha-induced RANTES production in A549 human lung epithelium cell line; assay type: functional, cell-based
pIC50: −log10 of the molar value.

compound: Cc1cccc(O)c1-c1cc(-c2cccc(NC(=O)C(O)CCC(=O)O)c2)c(C#N)c(N)n1 (stereo not drawn)
pIC50: < 4.30

compound: N#Cc1c(-c2cccc(NC(=O)CCCC(=O)O)c2)cc(-c2ccccc2O)nc1N
pIC50: < 4.30

compound: Cc1c(-c2ccccc2O)nc(N)c(C#N)c1-c1cccc(NC(=O)C(O)CCC(=O)O)c1 (stereo not drawn)
pIC50: < 4.30
